target: T1, human programmed cell death protein 1 (hPD-1) C93S (aa 24-167) (Homo sapiens, UniProt Q15116, C93S); assay: SPR; Carterra LSA; Fab from the ammonium sulfate precipitate of the culture supernatant immobilised on a NiHC200M chip; hPD-1 (1-1024 nM) or mPD-1-Fc (4-1024 nM) as analyte, fourfold dilution series, no regeneration; HBS-EP pH 7.4, 25 °C; medians over the spots of a construct, KD = koff/kon; details: one partner purified
T1 construct: made as a fusion with a TEV site and human Fc; the Fc was cut off with TEV protease; source: Expi293F, purified (Protein A, TEV cleavage of Fc, SEC; monomer fractions); not shown: Fc (human), C-terminal, cleaved
T1 sequence (Q15116 24-167 C93S): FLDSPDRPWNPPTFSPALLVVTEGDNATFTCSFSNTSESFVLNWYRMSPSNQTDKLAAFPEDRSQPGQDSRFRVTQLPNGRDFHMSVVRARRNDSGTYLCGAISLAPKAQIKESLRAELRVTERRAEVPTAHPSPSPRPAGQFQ
Measured Parameter: Kd (nM)
Please state the figure in nM; there is no need to write the unit.

{"columns": ["Binder", "Unit Descriptor", "Kd"],
 "data": [
  ["toripalimab Fab L.V99Q (Fab, V domains shown, as the heavy chain of Sm3; light chain of Sm3 with this change; numbers count from the chain's first residue; source: Brevibacillus, culture supernatant (ammonium sulfate precipitate); not shown: 6xHis, C-terminal, kept; 6xHN, C-terminal, kept) VH: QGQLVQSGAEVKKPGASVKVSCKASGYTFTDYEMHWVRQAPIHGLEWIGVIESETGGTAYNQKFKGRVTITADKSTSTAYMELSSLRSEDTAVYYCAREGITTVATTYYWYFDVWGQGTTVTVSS VL: DVVMTQSPLSLPVTLGQPASISCRSSQSIVHSNGNTYLEWYLQKPGQSPQLLIYKVSNRFSGVPDRFSGSGSGTDFTLKISRVEAEDVGVYYCFQGSHQPLTFGQGTKLEIK", "nM", 8.06]
]}

Now let's try a different one.
Ask: # query: Kd of entry toripalimab Fab H.T102A (Fab, V domains shown, heavy chain of Sm3 with this change; numbers count from the chain's first residue; as the light chain of Sm3; source: Brevibacillus, culture supernatant (ammonium sulfate precipitate); not shown: 6xHis, C-terminal, kept; 6xHN, C-terminal, kept) VH: QGQLVQSGAEVKKPGASVKVSCKASGYTFTDYEMHWVRQAPIHGLEWIGVIESETGGTAYNQKFKGRVTITADKSTSTAYMELSSLRSEDTAVYYCAREGIATVATTYYWYFDVWGQGTTVTVSS VL: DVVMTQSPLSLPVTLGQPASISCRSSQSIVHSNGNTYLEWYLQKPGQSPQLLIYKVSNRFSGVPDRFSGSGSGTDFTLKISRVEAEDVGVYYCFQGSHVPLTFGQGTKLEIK
Result: 65.9
